# TARGET OR TEST SYSTEM: UniProtKB P43364
# TEST METHOD NOTES: TR-FRET single point screening at 15 μM
# Type: binding
# Design: unit not given here
# TEST SETTINGS: single point TR-FRET screening of quinoline compounds against MAGE-A11:PCF11; 15 μM
Entries and their TR-FRET signal
OUTCOME MEASURE: TR-FRET signal

[
  {
    "COMPOUND": "COC(=O)CCCCCN(CCCNc1ccnc2cc(Cl)ccc12)Cc1ccccc1 [SJ000520429]",
    "ENDPOINT RESULT": 17.14
  },
  {
    "COMPOUND": "CCCN(CCCNc1ccnc2cc(Cl)ccc12)Cc1ccccc1F [SJ000522757]",
    "ENDPOINT RESULT": 21.99
  },
  {
    "COMPOUND": "CCCN(CCCNc1c2ccc(Cl)cc2nc2ccc(OC)cc12)Cc1cccc([N+](=O)[O-])c1 [SJ000520948]",
    "ENDPOINT RESULT": "−10.74"
  },
  {
    "COMPOUND": "CCCN(CCCNc1ccnc2cc(C(F)(F)F)ccc12)Cc1cccs1 [SJ000361253]",
    "ENDPOINT RESULT": 19.53
  },
  {
    "COMPOUND": "CCCN(CCCNc1ccnc2cc(C(F)(F)F)ccc12)Cc1ccc[nH]1 [SJ000361255]",
    "ENDPOINT RESULT": 30.66
  },
  {
    "COMPOUND": "CCCN(CCCNc1ccnc2cc(C(F)(F)F)ccc12)Cc1nc(C)cs1 [SJ000521010]",
    "ENDPOINT RESULT": 0.8927
  }
]

---

# TARGET OR TEST SYSTEM: interaction between GST-MAGEA11 MHD and FAM-PCF11_4 peptide (MAGE-A11:PCF11) (Homo sapiens (Human), UniProt P43364)
# Sequence (P43364 218-429): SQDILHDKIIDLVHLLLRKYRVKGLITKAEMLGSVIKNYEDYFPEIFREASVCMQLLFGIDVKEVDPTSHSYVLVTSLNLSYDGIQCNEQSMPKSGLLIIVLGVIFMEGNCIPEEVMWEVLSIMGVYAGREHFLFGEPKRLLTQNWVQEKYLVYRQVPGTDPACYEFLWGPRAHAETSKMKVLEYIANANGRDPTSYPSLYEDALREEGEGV
# TEST METHOD NOTES: TR-FRET dose response competition assay for disruption of MAGE-A11:PCF11 binding
# TEST SETTINGS: Table 5, dose response TR-FRET screening of 59 quinoline compounds against MAGE-A11:PCF11; read-out: TR-FRET IC50
pIC50: −log10 of the molar value.

[
  {
    "SMILES INPUT": "c1coc(CNCCCNc2ccnc3cc(-c4ccc5c(c4)OCO5)ccc23)c1",
    "pIC50": "< 4.15"
  },
  {
    "SMILES INPUT": "Clc1ccc2c(NCCCN(Cc3ccccc3)Cc3ccc4[nH]ccc4c3)ccnc2c1",
    "pIC50": 4.38
  },
  {
    "SMILES INPUT": "CCCCCCNCCCNc1ccnc2cc(C(F)(F)F)ccc12",
    "pIC50": 4.24
  },
  {
    "SMILES INPUT": "Clc1ccc2c(NCCCNCc3csc4ccccc34)ccnc2c1",
    "pIC50": "< 4.15"
  },
  {
    "SMILES INPUT": "CCCN(CCCNc1ccnc2cc(C(F)(F)F)ccc12)CC(CC)CC",
    "pIC50": "< 4.15"
  },
  {
    "SMILES INPUT": "CC(C)(C)CCN(CCCCNc1ccnc2cc(Cl)ccc12)Cc1ccccc1",
    "pIC50": "< 4.15"
  },
  {
    "SMILES INPUT": "COc1ccc(Oc2ccc3c(NCCCNCc4ccco4)ccnc3c2)cc1",
    "pIC50": "< 4.15"
  },
  {
    "SMILES INPUT": "c1coc(CNCCCNc2ccnc3cc(C4CCCCC4)ccc23)c1",
    "pIC50": "< 4.15"
  },
  {
    "SMILES INPUT": "c1coc(CNCCCNc2ccnc3cc(CC4CCCCC4)ccc23)c1",
    "pIC50": 4.26
  },
  {
    "SMILES INPUT": "CCCN(CCCNc1ccnc2cc(C(F)(F)F)ccc12)CC1CC1",
    "pIC50": "< 4.15"
  },
  {
    "SMILES INPUT": "Oc1c(F)cc(F)cc1CN(CCCCNc1ccnc2cc(Cl)ccc12)Cc1ccccc1",
    "pIC50": "< 4.15"
  },
  {
    "SMILES INPUT": "CN(C)c1cccc(Oc2ccc3c(NCCCNCc4ccco4)ccnc3c2)c1",
    "pIC50": "< 4.15"
  },
  {
    "SMILES INPUT": "CCCN(CCCNc1ccnc2cc(C(F)(F)F)ccc12)Cc1ccccc1OC",
    "pIC50": "< 4.15"
  }
]

---

# TARGET OR TEST SYSTEM: interaction between GST-MAGEA11 MHD and FAM-PCF11_4 peptide (MAGE-A11:PCF11) (Homo sapiens (Human))
# TEST METHOD NOTES: TR-FRET dose response competition assay for disruption of MAGE-A11:PCF11 binding
# TEST SETTINGS: Dose response TR-FRET screening of nine scaffold groups against MAGE-A11:PCF11; read-out: consensus IC50
Entries and their IC50

[
  {
    "MOLECULE": "CCn1c2ccccc2c2cc(CNCCc3ccc(Cl)cc3)ccc21",
    "IC50": "69.9 µM"
  },
  {
    "MOLECULE": "COc1ccc(-c2cc3ncn(CC(=O)NCc4ccc(C)cc4)c(=O)c3s2)cc1",
    "IC50": "69.9 µM"
  },
  {
    "MOLECULE": "Cc1ccc(S(=O)(=O)c2nc(-c3ccc(F)cc3)oc2N2CCOCC2)cc1",
    "IC50": "11.7 µM"
  },
  {
    "MOLECULE": "CC1CN(c2oc(-c3ccc([N+](=O)[O-])cc3)nc2C#N)CC(C)O1 (centres unmarked)",
    "IC50": "69.9 µM"
  },
  {
    "MOLECULE": "CCOc1ccc(N(C(C)=O)C2=C(Cl)C(=O)c3ccccc3C2=O)cc1",
    "IC50": "69.9 µM"
  },
  {
    "MOLECULE": "COP(=O)(OC)c1nc(-c2ccc(Br)cc2)oc1N1CCOCC1",
    "IC50": "69.9 µM"
  },
  {
    "MOLECULE": "COc1ccc(F)cc1CNCCCNc1ccnc2cc(Cc3cc(C)cc(C)c3)ccc12",
    "IC50": "9.04 µM"
  },
  {
    "MOLECULE": "CC(C)NC(=O)NC(=O)Cn1cnc2cc(-c3ccccc3)sc2c1=O",
    "IC50": "69.9 µM"
  },
  {
    "MOLECULE": "O=C1C(Cl)=C(Nc2ccc(Br)cc2)C(=O)c2ccccc21",
    "IC50": "69.9 µM"
  },
  {
    "MOLECULE": "CCC(CC)c1ccc2c(NCCCNCc3cccc(OC)c3O)ccnc2c1",
    "IC50": "9.95 µM"
  },
  {
    "MOLECULE": "COc1ccc(C2Nc3ccccc3C(=O)N2Cc2ccccc2)cc1CSc1ccccn1 (centres unmarked)",
    "IC50": "69.9 µM"
  }
]

---

# TARGET OR TEST SYSTEM: MAGE-A11:PCF11 (Homo sapiens (Human))
# Sequence (P43364 218-429): as above
# TEST METHOD NOTES: TR-FRET single point screening at 15 μM
# Type: binding
# Parameters: unit not given here
# TEST SETTINGS: single point TR-FRET screening of quinoline compounds against MAGE-A11:PCF11; 15 μM
# From the text: TR-FRET Assays and High-throughput Screen. Terbium-anti-GST antibody, 1 M Tris pH 7.5 1 M MgCl2 and 1 M DTT were purchased from Invitrogen (Carlsbad, CA), BSA was purchased from Sigma (St. Louis, MO). Dimethyl sulfoxide (DMSO) was purchased from Fisher Scientific (Pittsburgh, PA). Black 384-well low volume plates and 384-well polypropylene compound plates were purchased from Corning Incorporated (Tewksbury, MA). […]

[
  {
    "SMILES INPUT": "FC(F)(F)c1ccc2c(NCCCNCc3cccnc3)ccnc2c1",
    "TR-FRET signal": 15.04
  },
  {
    "SMILES INPUT": "CCCN(CCCNc1c2ccc(Cl)cc2nc2ccc(OC)cc12)Cc1cc2ccccc2s1",
    "TR-FRET signal": "−21.58"
  },
  {
    "SMILES INPUT": "Cc1ccsc1CN(CCCNc1ccnc2cc(Cl)ccc12)Cc1ccccc1",
    "TR-FRET signal": 10.9
  }
]
